# method notes: Cytotoxicity against MDCK cells assessed as reduction of cell viability by MTS dye staining
# Assay type: cell-based, Canis lupus familiaris
# recorded conditions: dog
Assign CC50 to each entry below.
Your answer should be a plain number; it is taken to be in nM.

Look up CC50 of C[C@H]1O[C@@H](n2ccc(=O)[nH]c2=O)C=C(F)C1=O and report it.
600

Consider the compound Cc1cn([C@H]2C=C(F)C(=O)[C@@H](C)O2)c(=O)[nH]c1=O . State its measured CC50.
700

State its CC50: C[C@H]1O[C@@H](n2cnc3c(NC(=O)c4ccccc4)ncnc32)C=C(F)C1=O
12000

Kindly indicate its recorded CC50. Item: C[C@H]1O[C@@H](n2ccc(NC(=O)c3ccccc3)nc2=O)C=C(F)C1=O
8200

Identify the reported CC50 for the following entry. C[C@H]1O[C@@H](n2cc(F)c(=O)[nH]c2=O)C=C(F)C1=O
600
